# Tested on: Staphylococcus aureus
# Assay Summary: Antibacterial activity against methicillin-resistant Staphylococcus aureus 53016 by broth microdilution method
# Type: functional
Collected MIC values appear next to each entry.

Compound Structure | MIC, µg/mL
CCCCCCCCCCCCCCCCCCCCCOC(=O)NC(CCC(=O)O)(CCC(=O)O)CCC(=O)O | 7
CCCCCCCCCCCCCCCCCCCCC(=O)NC(CCC(=O)O)(CCC(=O)O)CCC(=O)O | 28
CCCCCCCCCCCCCCCCCCCCCCC(=O)NC(C)(CCC(=O)O)CCC(=O)O | 3.6
CCCCCCCCCCCCCCCCCCCCCCCNC(=O)NC(CCC(=O)O)(CCC(=O)O)CCC(=O)O | 7
CCCCCCCCCCCCCCCCCCCCC(=O)NC(C)(CCC(=O)O)CCC(=O)O | 3.6

* * *

# Assay Summary: Critical micelle concentration of the compound in full-strength brain heart infusion broth by dye-covered glass-bead release
# Experimental Context: pH 7.4

Compound Structure | CMC, µg/mL
CCCCCCCCCCCCCCCCCCCCCOC(=O)NC(CCC(=O)O)(CCC(=O)O)CCC(=O)O | 18
CCCCCCCCCCCCCCCCCCCOC(=O)NC(C)(CCC(=O)O)CCC(=O)O | 9
CCCCCCCCCCCCCCCCCCCCCOC(=O)NC(C)(CCC(=O)O)CCC(=O)O | 9
CCCCCCCCCCCCCCCCCCCCCCC(=O)NC(C)(CCC(=O)O)CCC(=O)O | 9
CCCCCCCCCCCCCCCCCCCCC(=O)NC(C)(CCC(=O)O)CCC(=O)O | 9
CCCCCCCCCCCCCCCCCCCCCCC(=O)NC(CCC(=O)O)(CCC(=O)O)CCC(=O)O | 18
CCCCCCCCCCCCCCCCCCCCCNC(=O)NC(CCC(=O)O)(CCC(=O)O)CCC(=O)O | 9
CCCCCCCCCCCCCCCCCCCCC(=O)NC(CCC(=O)O)(CCC(=O)O)CCC(=O)O | 18
CCCCCCCCCCCCCCCCCCCCCCCOC(=O)NC(CCC(=O)O)(CCC(=O)O)CCC(=O)O | 18

* * *

# Tested on: Staphylococcus aureus
# Assay Summary: Antibacterial activity against methicillin-resistant Staphylococcus aureus 53016 by broth microdilution method
# Format: functional
# if measured MIC < 3 µg/mL: Y  # else: N

Compound Structure | Answer Label
CCCCCCCCCCCCCCCCCCCCCNC(=O)NC(CCC(=O)O)(CCC(=O)O)CCC(=O)O | N
CN[C@H](CC(C)C)C(=O)N[C@H]1C(=O)N[C@@H](CC(N)=O)C(=O)N[C@H]2C(=O)N[C@H]3C(=O)N[C@H](C(=O)N[C@H](C(=O)O)c4cc(O)cc(O)c4-c4cc3ccc4O)[C@H](O)c3ccc(c(Cl)c3)Oc3cc2cc(c3O[C@@H]2O[C@H](CO)[C@@H](O)[C@H](O)[C@H]2O[C@H]2C[C@](C)(N)[C@H](O)[C@H](C)O2)Oc2ccc(cc2Cl)[C@H]1O | Y
CCCCCCCCCCCCCCCCCCCOC(=O)NC(C)(CCC(=O)O)CCC(=O)O | Y
CCCCCCCCCCCCCCCCCCCCCCC(=O)NC(CCC(=O)O)(CCC(=O)O)CCC(=O)O | N
CCCCCCCCCCCCCCCCCCCCCCCOC(=O)NC(CCC(=O)O)(CCC(=O)O)CCC(=O)O | N
CCCCCCCCCCCCCCCCCCCCCOC(=O)NC(C)(CCC(=O)O)CCC(=O)O | N

* * *

# Assay Summary: Cytotoxicity in sheep RBC assessed as hemolysis after 15 mins by microplate reader
# Assay type: cell-based, Ovis aries
# Experimental Context: erythrocyte, 0.25 h
Measurement Type: EC10 (µg/mL)

Compound Structure | Measurement Type | Quantitative Result
CCCCCCCCCCCCCCCCCCCCC(=O)NC(C)(CCC(=O)O)CCC(=O)O | EC10 | 7.8
CCCCCCCCCCCCCCCCCCCCC(=O)NC(CCC(=O)O)(CCC(=O)O)CCC(=O)O | EC10 | 31
CCCCCCCCCCCCCCCCCCCCCCCNC(=O)NC(CCC(=O)O)(CCC(=O)O)CCC(=O)O | EC10 | 31
CCCCCCCCCCCCCCCCCCCCCCC(=O)NC(C)(CCC(=O)O)CCC(=O)O | EC10 | 7.8
CCCCCCCCCCCCCCCCCCCCCCCOC(=O)NC(CCC(=O)O)(CCC(=O)O)CCC(=O)O | EC10 | 63
CCCCCCCCCCCCCCCCCCCCCOC(=O)NC(CCC(=O)O)(CCC(=O)O)CCC(=O)O | EC10 | 31
CCCCCCCCCCCCCCCCCCCCCOC(=O)NC(C)(CCC(=O)O)CCC(=O)O | EC10 | 16
CCCCCCCCCCCCCCCCCCCCCNC(=O)NC(CCC(=O)O)(CCC(=O)O)CCC(=O)O | EC10 | 31
CCCCCCCCCCCCCCCCCCCCCCC(=O)NC(CCC(=O)O)(CCC(=O)O)CCC(=O)O | EC10 | 31
CCCCCCCCCCCCCCCCCCCOC(=O)NC(C)(CCC(=O)O)CCC(=O)O | EC10 | 16

* * *

# Test system: Staphylococcus aureus
# Assay Summary: Antibacterial activity against methicillin-resistant Staphylococcus aureus 523000 by broth microdilution method
# Assay type: functional
Measurement Type: log10 of MIC (log10 of the value in µg/mL)

Compound Structure | Measurement Type | Quantitative Result
CCCCCCCCCCCCCCCCCCCCCCCOC(=O)NC(CCC(=O)O)(CCC(=O)O)CCC(=O)O | log10 of MIC | 0.85
CCCCCCCCCCCCCCCCCCCCCOC(=O)NC(C)(CCC(=O)O)CCC(=O)O | log10 of MIC | 0.53
CCCCCCCCCCCCCCCCCCCCCCC(=O)NC(C)(CCC(=O)O)CCC(=O)O | log10 of MIC | 0.56
CCCCCCCCCCCCCCCCCCCCCCCNC(=O)NC(CCC(=O)O)(CCC(=O)O)CCC(=O)O | log10 of MIC | 1.15
CCCCCCCCCCCCCCCCCCCCC(=O)NC(C)(CCC(=O)O)CCC(=O)O | log10 of MIC | 0.56
CCCCCCCCCCCCCCCCCCCCCNC(=O)NC(CCC(=O)O)(CCC(=O)O)CCC(=O)O | log10 of MIC | 0.85
CCCCCCCCCCCCCCCCCCCCCOC(=O)NC(CCC(=O)O)(CCC(=O)O)CCC(=O)O | log10 of MIC | 0.85
CCCCCCCCCCCCCCCCCCCCC(=O)NC(CCC(=O)O)(CCC(=O)O)CCC(=O)O | log10 of MIC | 1.45
CCCCCCCCCCCCCCCCCCCOC(=O)NC(C)(CCC(=O)O)CCC(=O)O | log10 of MIC | 0.23
CCCCCCCCCCCCCCCCCCCCCCC(=O)NC(CCC(=O)O)(CCC(=O)O)CCC(=O)O | log10 of MIC | 1.15

* * *

# Test system: Staphylococcus aureus
# Assay Summary: Antibacterial activity against methicillin-resistant Staphylococcus aureus 34380 by broth microdilution method
# Type: functional
Measurement Type: MIC (µg/mL)

Compound Structure | Measurement Type | Quantitative Result
CCCCCCCCCCCCCCCCCCCCCCC(=O)NC(CCC(=O)O)(CCC(=O)O)CCC(=O)O | MIC | 7
CCCCCCCCCCCCCCCCCCCCC(=O)NC(CCC(=O)O)(CCC(=O)O)CCC(=O)O | MIC | 28
CCCCCCCCCCCCCCCCCCCCCOC(=O)NC(CCC(=O)O)(CCC(=O)O)CCC(=O)O | MIC | 5.3
CCCCCCCCCCCCCCCCCCCOC(=O)NC(C)(CCC(=O)O)CCC(=O)O | MIC | 2.2
CCCCCCCCCCCCCCCCCCCCCCC(=O)NC(C)(CCC(=O)O)CCC(=O)O | MIC | 3.6
CCCCCCCCCCCCCCCCCCCCC(=O)NC(C)(CCC(=O)O)CCC(=O)O | MIC | 3.6
CCCCCCCCCCCCCCCCCCCCCNC(=O)NC(CCC(=O)O)(CCC(=O)O)CCC(=O)O | MIC | 7
CCCCCCCCCCCCCCCCCCCCCOC(=O)NC(C)(CCC(=O)O)CCC(=O)O | MIC | 4.5
CCCCCCCCCCCCCCCCCCCCCCCOC(=O)NC(CCC(=O)O)(CCC(=O)O)CCC(=O)O | MIC | 5.3
CCCCCCCCCCCCCCCCCCCCCCCNC(=O)NC(CCC(=O)O)(CCC(=O)O)CCC(=O)O | MIC | 11

* * *

# Tested on: Staphylococcus aureus
# Assay Summary: Antibacterial activity against methicillin-resistant Staphylococcus aureus by broth microdilution method
# Type: functional
The entries below come with measured MIC values attached.
Measurement Type: MIC (µg/mL)

Molecule | Op | Quantitative Result
CCCCCCCCCCCCCC(=O)O | = | 250
CCCCCCCCCCCCCCCC(=O)O | = | 250
CCCCCCCCCC(=O)O | > | 250
CCCCCCCCCCCC(=O)O [DODECANOATE] | > | 250
